The measurements presented in this section are drawn from PubChem BioAssay (NCI).

- System: HCT-15 colon
- Measurement notes: NCI tumour cell line growth inhibition, 48 h; in the data active means GI50 below about 0.43 µM; inactive means the rest
Labels: active, inactive

In [3]: df
Out[3]:
                                    compound  label_value
 0  c1ccc2[nH]c(-c3ccc(N4CCN(c5ccc(-c6nc7ccccc7[nH]6)cc5)CC4)cc3)nc2c1     inactive
 1  COc1cc(Cn2cc3c(c2)-c2oncc2CC3)cc(OC)c1OC       active
 2  CCCN1C(=O)/C(=c2\sc3n(c2=O)C2C(NN=3)N(CC)C(=O)N2CC)c2ccccc21 (centres undefined)       active
 3  CC12CCC=CC1CCC1C2CCC2(C)C(c3ccc(=O)oc3)CCC12O (centres undefined)       active
 4  NC(=O)[C@H]1CCN(c2ncnc(N)c2F)C[C@@H]1N1CCC[C@@H](Nc2cc(Cl)cc(C(F)(F)F)c2)C1=O     inactive
 5  C=C(C)[C@@H]1CC[C@]2(C(=O)NCCCN)CC[C@]3(C)[C@H](CC[C@@H]4[C@@]5(C)CC[C@H](O)C(C)(C)[C@@H]5CC[C@]43C)[C@@H]12     inactive
 6  CC12CCC(=O)C(O1)C1C(=O)c3cc4ccccc4cc3C(=O)C12 (centres undefined)     inactive
 7   Fc1ccc2[nH]cc(Cc3c[nH]c4ccc(F)cc34)c2c1     inactive
 8  O=C(CCN1CCCC1)Nc1ccc2c(NCc3ccc(F)cc3)c3ccccc3nc2c1     inactive
 9  N#CC(C#N)=Cc1ccc(-c2ccc(-c3nc4ccccc4s3)cc2)o1     inactive
10  CCN(CC)CCOc1ccc(C(=C(C)c2ccc(Cl)cc2)c2ccc(OCCN(CC)CC)cc2)cc1     inactive
11    CSc1nnc(CCSc2ccnc3c(C(F)(F)F)cccc23)o1     inactive
12  COc1cccc(OC(=O)c2ccccc2Nc2ccnc(C(F)(F)F)c2)c1     inactive
13  COc1ccc(C(=O)/C=C/c2ccc(Cl)cc2)cc1S(=O)(=O)Nc1c(N)nc(SC)[nH]c1=O     inactive
